Data provenance: patent US9676997B2

Experimental details: Stability of 1.25 mM coelenterazine-h in 50% ethanol and 50% propylene glycol with or without 225 mM ATT, HPLC and Arrhenius plots
Format: physicochemical
Condition set: solution of 50% ethanol and 50% propylene glycol, −20° C.; read-out: T1/2 Calculated from Arrhenius (converted)
Reported property: half-life at 1.25 mM (days)
Report only the number, with the unit days understood.

Prompt: Please look up its half-life at 1.25 mM: O=c1c(Cc2ccccc2)nc2c(Cc3ccccc3)[nH]c(-c3ccc(O)cc3)cn1-2 [Coelenterazine-h (15-957-39), coelenterazine-h]
Completion: 1210

====

Experimental details: Stability of 1.25 mM coelenterazine in 50% ethanol and 50% propylene glycol with or without 225 mM ATT, HPLC and Arrhenius plots
Assay type: physicochemical
Condition set: solution of 50% ethanol and 50% propylene glycol, 40° C.; read-out: T1/2 Estimated from graph (converted)
Reported property: half-life at 1.25 mM (h)
Provide only the numeric value, understood in h.

Prompt: What value of measured half-life at 1.25 mM is listed for O=c1c(Cc2ccc(O)cc2)nc2c(Cc3ccccc3)[nH]c(-c3ccc(O)cc3)cn1-2 ?
Completion: 228

====

Experimental details: Stability of 1.25 mM coelenterazine in 50% ethanol and 50% propylene glycol with or without 225 mM ATT, HPLC and Arrhenius plots
Assay type: physicochemical
Condition set: solution of 50% ethanol and 50% propylene glycol, 60° C.; read-out: T1/2 Calculated from Arrhenius (converted)
Experimental: The stability of coelenterazine in the presence and absence of ATT was measured over time at different temperatures. […] These two solutions were incubated at −20° C., room temperature (RT), 40° C., or 60° C. and analyzed at 0 days, 1 day, 3 days, 7 days, 15 days, and 30 days. Following incubation, high performance liquid chromatography (HPLC) was utilized to identify the components of the respective solutions at each time point. […] Absorbance was measured at 262 nanometers (nm). […]
Reported property: half-life at 1.25 mM (h)
Quick note: give the figure in h, leave out the unit.

Prompt: Fill in: half-life at 1.25 mM of O=c1c(Cc2ccc(O)cc2)nc2c(Cc3ccccc3)[nH]c(-c3ccc(O)cc3)cn1-2 [Coelenterazine (27-957-28), coelenterazine] is ___
Completion: 40.8

====

Experimental details: Stability of 1.25 mM coelenterazine in 50% ethanol and 50% propylene glycol with or without 225 mM ATT, HPLC and Arrhenius plots
Type: physicochemical
Condition set: solution of 50% ethanol and 50% propylene glycol, −20° C.; read-out: T1/2 Calculated from Arrhenius (converted)
Reported property: half-life at 1.25 mM (days)
The reply should contain only the number, in days.

Prompt: Would you mind telling me what half-life at 1.25 mM value was observed for O=c1c(Cc2ccc(O)cc2)nc2c(Cc3ccccc3)[nH]c(-c3ccc(O)cc3)cn1-2 ?
Completion: 1940

====

Experimental details: Stability of 1.25 mM coelenterazine-h in 50% ethanol and 50% propylene glycol with or without 225 mM ATT, HPLC and Arrhenius plots
Format: physicochemical
Condition set: solution of 50% ethanol and 50% propylene glycol, 40° C.; read-out: T1/2 Estimated from graph (converted)
Reported property: half-life at 1.25 mM (h)
Numbers only; they are read as h.

Prompt: Which half-life at 1.25 mM is reported for this molecule? O=c1c(Cc2ccccc2)nc2c(Cc3ccccc3)[nH]c(-c3ccc(O)cc3)cn1-2
Completion: 180
